# System: MS2 coat protein
# experimental.details: apparent KD of MS2 coat protein; designed switch direction (-1 OFF switch, 1 ON switch): -1; higher = weaker reporter binding
# test.context: input ligand: FMN 200 uM
Param threshold (100 nM) applies to apparent KD of MS2 coat protein; output Criterion met when value >= threshold, Criterion not met when value < threshold.

{"construct.sequence": "CUUUUAAAGCAACAUCAGCACAUGAGGAUCACCCAUGUGGCGUCCCGACUGUGCACGAUUGCUCGUCUUGACUGUAU [Eternabot (L1) Solution 25] (Eterna round: R97, puzzle: Sensor, turn-off variant 1)", "assigned.label": "Criterion met"}
{"construct.sequence": "CGAUAGAUAGGAUAUACAUGAGGAUCACCCAUGUGAACGGGUAGAUUUGUCAACUGAAGUAGAAGGAUCGUCGC [Eternabot (L2) Solution 64] (Eterna round: R97, puzzle: Exclusion 3)", "assigned.label": "Criterion met"}

Query: API: above_or_equal(metric=apparent KD of MS2 coat protein, cutoff=100 nM) for item AGGUGCUUCAGGAGACAUGAGGAUCACCCAUGUUGAGUUAGCGAGGAUAUCGGUAACCCUUGUGAUGAGAAGGCGCAAACCAGU [Ex NG3 #45] (Eterna round: R96, puzzle: Exclusion NG 3)
Reply: Criterion not met

Query: API: above_or_equal(metric=apparent KD of MS2 coat protein, cutoff=100 nM) for item AUAAUACAUGUAGGAUAUGCGUGGCGAAGCUAUGCAGAAGGACAUGAGGAUCACCCAUGUCUUAGCGUCUGCGUACAGAUGCUA [JL eng1 1.35 mod 2] (Eterna round: R96, puzzle: Exclusion NG 1)
Reply: Criterion not met

Query: API: above_or_equal(metric=apparent KD of MS2 coat protein, cutoff=100 nM) for item UAAAAUUUAGGAUAUGCGUGAGAUAGAGUACGAUGAGCUGCACAUGAGGAUCACCCAUGUAGAAGGAAAUUUUA [-11, -8.6 kcal, 36% A] (Eterna round: R97, puzzle: Exclusion 2)
Reply: Criterion not met

---

# System: MS2 coat protein
# experimental.details: apparent KD of MS2 coat protein; higher = weaker reporter binding
# test.context: Eterna round: R107; input ligand: none
Param threshold (50 nM) applies to apparent KD of MS2 coat protein; output met when value >= threshold, not met when value < threshold.

Illustrative cases are given below, each with its answer.
{"construct.sequence": "UGUCCUCAUGCGGCCGCCACUGUCGGCCGCCACUAAACAUGAGGAUCACCCAUGUAGGACCGGGACAGGACCGGGCAUGGGUGCU [TryBS - #DoubleAptamer]", "assigned.label": "met"}
{"construct.sequence": "AGCAUGUUCAGAAGGAGCGUGCAAGGGUACAUUCGUAGGACAUGAGGAUCACCCAUGUAAGCACAGGUAGGUCGCUGGACAUGCU [Arg B SS t5]", "assigned.label": "met"}
{"construct.sequence": "UGUGCAGGAUGCGUAAAGGGUCUUGGGCAUCGAGGACCGGUACGGCCGCCACUCGGCUGUACAUGAGGAUCACCCAUGUCAGGGU [#1 Same State - Tryptophan A Attempt #20 (HarryS)]", "assigned.label": "met"}
{"construct.sequence": "GGGCCCGGGCGCGAGCCCGGGCCCAUUGAUACCAGUGAUAUAUAACGCCCUUGGCAGCGAAUCCUAACAUGAGGAUCACCCAUGU [5.G]", "assigned.label": "not met"}
{"construct.sequence": "AGCACUGUGACGGCCGCCACUACAUAAGAUGGGUGGUCAGGUUCAUUACAUGAGGAUCACCCAUGUAGGACCGGGUCUCAGUGCA [Omei Trp Exc B A v10]", "assigned.label": "not met"}

Query: API: above_or_equal(metric=apparent KD of MS2 coat protein, cutoff=50 nM) for item UGUACUAUGUGAAGGAGCGAGAAGGAGCGAACAUGAGGAUCACCCAUGUACAGGUAGGUCGCUCAGGUAGGUCGCACAUAGUACU [ArgBS - Double aptamer]
Reply: not met

Query: API: above_or_equal(metric=apparent KD of MS2 coat protein, cutoff=50 nM) for item GGACUAACCUGAAGGAGCGACGCGCAGAAACUGCAAAUUCCUCCACACGAGGAUCACCCGUGUCAGGUAGGUCGCAGGUUAGUCG [ArgBX 28]
Reply: not met

Query: API: above_or_equal(metric=apparent KD of MS2 coat protein, cutoff=50 nM) for item CCUUUGUAGCGAAGGAGCGCGUGACUUAGCUCAUGUAAACAUGAGGAUCACCCAUGUGACACGCAGGUAGGUCGCGCUAUGAAGG [Arg B Ex t3]
Reply: not met

Query: API: above_or_equal(metric=apparent KD of MS2 coat protein, cutoff=50 nM) for item AGGACGGUCGGAAGGAGCGGUACAUGAGGAUCACCCAUGUACUUAUGGGCAUCCGUAGAGUGCCAGGUAGGUCGCCGAUUGCGGG [XArg-B11]
Reply: not met

Query: API: above_or_equal(metric=apparent KD of MS2 coat protein, cutoff=50 nM) for item ACGGAUCGGAAACGAUCCGCGGCGAGGGUGCGAGGACCGGUACGGCCGCCACUCGGGUAACAUGAGGAUCACCCAUGUCCGAAGA [ETA NuPACK+Vienna+Vienna2 #10 Same Structure]
Reply: met

Query: API: above_or_equal(metric=apparent KD of MS2 coat protein, cutoff=50 nM) for item UCGCUCUGGGUGAGAUCCGGAGAUGUGGAAGGAGCGCUGGUUCCAGCAGGUAGGUCGCCAACGGACAUGAGGAUCACCCAUGUAC [Same State - Arginine A (Freestyle 13)]
Reply: met

---

In this section, each of the sequences is paired with its reported apparent KD of MS2 coat protein.
# System: MS2 coat protein
# experimental.details: apparent KD of MS2 coat protein, switch ON state; designed switch direction (-1 OFF switch, 1 ON switch): 1; higher = weaker reporter binding
# test.context: FMN input: 0 or 200 uM; Eterna round: R93 (includes R88 designs)
Give a bare numeral; the unit nM is implied.

{"construct.sequence": "GAUGACAUAGUACAGGAUAUAUGAAUAGUCACAUGAGGAUCACCCAUGUGCAUUUAUAUGCGCACAUAGAAGGGUGGUAGUGAUC [Mat - Same state - Malcolm Mod - D126]", "unit.of.measurement": "nM", "value.observed": 79.9}

Please look at the following sequence next.
Query: Please report the recorded apparent KD of MS2 coat protein for GUAGACAUAGUUCAGGAUAUAUGAAUAGUCACAUGAGGAUCACCCAUGUCCAUUUAUAUGGGCACAUAGAAGGGAGGUAGUUAAC [Mat - Same state - Malcolm Mod - D123] .
Reply: 891

---

# Tested on: MS2 coat protein
# experimental.details: apparent KD of MS2 coat protein; designed switch direction (-1 OFF switch, 1 ON switch): 1; higher = weaker reporter binding
# test.context: input ligand: microRNA oligo, concentration not stated
assay.endpoint: apparent KD of MS2 coat protein (nM)
Give a bare numeral; the unit nM is implied.

# annotated cases, reported apparent KD of MS2 coat protein shown
{"construct.sequence": "GCGGAAUGGUGUGACAUGAGGAUCACCCAUGUAACCUCAUGUAAGGAUAUCGGGAAGAAGAAAACCGAGAAGGUACGGUGACGC [AK SSNG3-V2-28] (Eterna round: R96, puzzle: Same State NG 3)", "unit.of.measurement": "nM", "value.observed": 145}
{"construct.sequence": "CCGUAGAUGGUAGGAUAUGGAGCCUUAUUGGCUCCAGAAGGAUCGAAAACAUGAGGAUCACCCAUGUCGGCGGUCAAUAGACCG [Eli NG1ss - 84] (Eterna round: R96, puzzle: Same State NG 1)", "unit.of.measurement": "nM", "value.observed": 43.1}
{"construct.sequence": "UAUGAAUUGCAAGGAUAUUGAUAACAUGAGGAUCACCCAUGUAAUUGUUCGAGUUAGAUUAGUUACAAGAAGGUGCUAUUGUUU [JR_SSNG2_Sub038] (Eterna round: R96, puzzle: Same State NG 2)", "unit.of.measurement": "nM", "value.observed": 459}
{"construct.sequence": "CUGAGCGAUCAAGGAUAUCACGUCGAUUAGACGUGAGAAGGUGAUCAUAACAUGAGGAUCACCCAUGUAUUACAUGAAGCUCAG [SSNG1/2-A2] (Eterna round: R96, puzzle: Same State NG 1)", "unit.of.measurement": "nM", "value.observed": 146}

Please look at the following sequence next.
Query: Please report the recorded apparent KD of MS2 coat protein for GCCAUCCAGUGAGGAUAUGGCACCGUUUCGGUGCCAGAAGGCAUGUCAAUUGACAUGAGGAUCACCCAUGUAUUAUGGAUGGCA [JL Fiskers NG1ss - 33 mod 1] (Eterna round: R96, puzzle: Same State NG 1) .
Reply: 423

---

In this section, each of the sequences is paired with its reported apparent KD of MS2 coat protein.
# System: MS2 coat protein
# experimental.details: apparent KD of MS2 coat protein; designed switch direction (-1 OFF switch, 1 ON switch): 1; higher = weaker reporter binding
# test.context: input ligand: none

{"construct.sequence": "GGAAUAUUUACAGGAUAUGAGUUGUAAAGUCGAUCAGAAGGGUAGAUGUCUUACACGGUGUGUUACAUGAGGAUCACCCAUGUU [SameState NG1 #19] (Eterna round: R96, puzzle: Same State NG 1)", "apparent KD of MS2 coat protein": "218 nM"}
{"construct.sequence": "UAUGAAUUGCAAGGAUAUUGAUAACAUGAGGAUCACCCAUGUAAUUGUUCGAGUUAGAUUAGUUACAAGAAGGUGCUAUUGUUU [JR_SSNG2_Sub038] (Eterna round: R96, puzzle: Same State NG 2)", "apparent KD of MS2 coat protein": "337 nM"}
{"construct.sequence": "CGCAGGCACGUAGGAUAUCUAGCGUGGGAGGCUAGAGAAGGAUGGAAUAACAUGAGGAUCACCCAUGUCGCCUCGCGGAAAUAA [Diorverire] (Eterna round: R96, puzzle: Same State NG 1)", "apparent KD of MS2 coat protein": "32.8 nM"}

Please look at the following sequence next.
Query: Request body: readout apparent KD of MS2 coat protein, system MS2 coat protein, query UUGAAGAAUUAAGGAUAUUGAAUACAUAUGUUUAACAUGAGGAUCACCCAUGUGGGUUGCGGUAUCGAGAAGGUAAAAUAAUAG [Mat - Same State NG 2 - JL mod - D4] (Eterna round: R96, puzzle: Same State NG 2) . Return the value.
Reply: 110 nM
